# key: entry, value: IC50
target: Human PD-L1/PD-1 (Homo sapiens, UniProt Q9NZQ7); construct: made in house; host or cells: HEK293T; assay: HTRF PD-1-Ig/PD-L1-His binding assay (human PD-L1); settings: cluster symbol; read-out: HTRF IC50 cluster
Sequence (Q9NZQ7 with tags, fused parts or gaps): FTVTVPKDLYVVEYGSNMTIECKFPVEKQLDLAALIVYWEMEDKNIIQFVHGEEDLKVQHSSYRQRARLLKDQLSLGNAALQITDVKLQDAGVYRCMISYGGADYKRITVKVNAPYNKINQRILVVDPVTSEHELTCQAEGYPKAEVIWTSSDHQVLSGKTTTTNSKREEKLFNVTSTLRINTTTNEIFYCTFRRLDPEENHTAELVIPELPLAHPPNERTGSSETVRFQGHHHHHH
Positions of bridges follow the written chain, without caps; N, C: chain ends. Non-standard residues stand in square brackets, D forms with d. Residues, ends and D or L forms follow the SMILES beside them. Phe(3,5-F2) = N[C@@H](Cc1cc(F)cc(F)c1)C(=O)O; Phe(4-NH2) = Nc1ccc(C[C@H](N)C(=O)O)cc1; NMeF = CN[C@@H](Cc1ccccc1)C(=O)O; NMeNle = CCCC[C@H](NC)C(=O)O; Sar = CNCC(=O)O

CCCC[C@H]1C(=O)N(C)CC(=O)N[C@@H](CC(=O)O)C(=O)N[C@@H](C(C)C)C(=O)N(C)[C@@H](Cc2ccccc2)C(=O)N[C@@H](Cc2ccc(N)cc2)C(=O)N(C)CC(=O)N[C@@H](Cc2c[nH]c3ccccc23)C(=O)N[C@@H](Cc2ccc(O)cc2)C(=O)N[C@@H](CC(C)C)C(=O)N[C@H](C(=O)NCC(N)=O)CSCC(=O)N[C@@H](Cc2ccccc2)C(=O)N(C)[C@@H](Cc2ccccc2)C(=O)N1C [Example 3139] ({CH2CO}-F[NMeF][NMeNle][Sar]DV[NMeF][Phe(4-NH2)][Sar]WYLCG-NH2; thioether N-13)	6.76 to 30.3 nM

Now turn to the next compound.
Name the reported IC50 value associated with the compound CCCC[C@H]1C(=O)N(C)CC(=O)N[C@@H](CC(=O)O)C(=O)N[C@@H](C(C)C)C(=O)N(C)[C@@H](Cc2ccccc2)C(=O)N[C@@H](Cc2ccc(O)cc2)C(=O)N(C)CC(=O)N[C@@H](Cc2c[nH]c3ccccc23)C(=O)N[C@@H](Cc2ccc(O)cc2)C(=O)N[C@@H](CC(C)C)C(=O)N[C@H](C(=O)NCC(N)=O)CSCC(=O)N[C@@H](Cc2cc(F)cc(F)c2)C(=O)N(C)[C@@H](Cc2ccccc2)C(=O)N1C [Example 3143] ({CH2CO}-[Phe(3,5-F2)][NMeF][NMeNle][Sar]DV[NMeF]Y[Sar]WYLCG-NH2; thioether N-13)
6.76 to 30.3 nM
